Reported self-cleavage values for a set of variants
B1: Hairpin Ribozyme (parent)
chain: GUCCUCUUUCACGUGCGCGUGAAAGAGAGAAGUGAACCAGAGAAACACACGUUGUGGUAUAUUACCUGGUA

Variants of: B1
Test: self-cleavage, relative activity (ratio to wild type); higher = more cleavage; co-transcriptional
Answer with a bare number; do not write a unit.

// below: answered variants
C37A A61U ... 0.142
U2G A59C ... 0.223
U53A A71U ... 0.706
G34U U60G ... 1.34
A31U C38G ... 0

// next item, self-cleavage requested
Reported self-cleavage of U5G U60C : 0.593
